Provenance of the data: paper PMC13061574

Biological target: THIK1 (K2P13.1) (Homo sapiens, UniProt Q9HB14, R92A)
Sequence (Q9HB14 whole entry R92A): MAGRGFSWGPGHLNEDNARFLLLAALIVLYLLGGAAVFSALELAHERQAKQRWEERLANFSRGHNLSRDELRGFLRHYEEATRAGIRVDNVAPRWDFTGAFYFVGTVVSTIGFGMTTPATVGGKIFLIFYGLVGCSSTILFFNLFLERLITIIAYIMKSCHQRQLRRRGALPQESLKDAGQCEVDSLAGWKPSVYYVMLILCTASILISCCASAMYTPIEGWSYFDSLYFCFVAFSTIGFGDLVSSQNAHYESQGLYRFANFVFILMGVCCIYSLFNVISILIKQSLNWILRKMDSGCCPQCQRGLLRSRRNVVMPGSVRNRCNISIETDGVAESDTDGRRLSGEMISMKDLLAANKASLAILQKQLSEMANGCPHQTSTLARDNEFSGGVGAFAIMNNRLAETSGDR
Assay: TEVC electrophysiology dose–response, activation
assay.readout: EC50 (nM)
Provide the reading as a plain figure in nM.

## Task Quickly give me recorded EC50 for `CCCCC/C=C\C/C=C\CCCCCCCC(=O)O`
## Result 700
